Attribution: the supplement of paper PMC12764529

# EXPERIMENT_NOTES: folding stability dG unfold from trypsin proteolysis; higher = more stable
Classify by measured folding stability dG unfold: T if it is equal to or exceeds 0.9 kcal/mol, F if it is smaller.

Answered examples (4):
SAGGSAGGSGGMMKVIVSVSPGEEAVEKVNKLVNETDLPPIEVIIIPHSPDDPIVVAILLLLLSAGGSAGGS [r12_649_JUSTAS]	T
SAGGSADPDSPYVIRFNKPYTTFSPDGTPIELTEDVLKRFKSEEEAKKAKEELEKKGAKVEPVEGSSAGGSA [r15_117_JUSTAS]	F
SAGGSAGGSAGGVVVVEVEIRLSDEEIEALKDLGISAEDLTLRVTVVVELPPPPPAEEESAGGSAGGSAGGS [r10_1149_TrROS_Hall]	T
SAGGSAGGSAGGMTKLEPLATEPNPLKVLTKVTTTDPVTGKPKTTIVETEIPVPESELGSAGGSAGGSAGGS [r10_846_JUSTAS]	F

Problem: Kindly determine if folding stability dG unfold recorded for SAGGGALVLPDPDVPDDLPLVVVDPENGTVTLLHFDRETGRVRARVVRLGDGVPEEEEAVFPVAPDALSAGG [r13_851_TrMRF] is above or exactly 0.9 kcal/mol.
Solution: F

Problem: Kindly determine if folding stability dG unfold recorded for SMVKVEIEEENGEKTIRIVNEETGVVVEIKFPEGEEVIEVPSVEELVEELKELGENIEITKIEPLSEEELSA [r9_1102_TrROS_Hall] is above or exactly 0.9 kcal/mol.
Solution: F

Problem: Kindly determine if folding stability dG unfold recorded for SAGGMPIKSKKEAEEFIKKGGAKYLSKTKVKVKGEEKEKEFEVYEFVFKDPKTNKPILVVVPKEYIGSAGGS [r16_271_TrMRF] is above or exactly 0.9 kcal/mol.
Solution: F

====

Would you mind telling me the reported folding stability dG unfold of each entry?
# EXPERIMENT_NOTES: folding stability dG unfold (combined trypsin and chymotrypsin); higher = more stable
One number for each entry, in kcal/mol.

# example entries with known answers
SAGGSAGGSADNPDDKKKQKPKPEIKVKVEWVVIPNGFLIFEITIAGGITLTIIIPFPPNMFSAGGSAGGSA [r18_192_TrROS]	2.84
SAGGSASSMPVTLTLLLTRPDGTPLTLPFEAETLEEAIERGTALAQELIAELGDPNMKITGLEVVPSAGGSA [r15_698_JUSTAS]	1.22
SAGGSAGGSAGEEIIRAAKEAAKAGKKVRIVVPKGMSAEEIAKKLAEELNIEKVEVYELPSAGGSAGGSAGG [r11_524_TrROS_Hall]	-0.142

Give folding stability dG unfold for each listed item.
1. SAGVVEELLKEFPDVEKVTSSSYPGPKVSQYVIYFPTPSGKKVTIKITVTQPRLPSNSTTSELSIELNDSAG [r5_398_JUSTAS]
2. SAGGSMTTTTVTVTDPAGNTTTYTFPSSVPLEEIVEAVSKALGRPVTVLSVTTDPSGTTTVTLAVPGSAGGS [r8_285_JUSTAS]
3. SAGGSAGGSAGGSADKNGYVKIPITVFTMERYGNGQPKMETVKVEIYVPPGESIEDLLQSAGGSAGGSAGGS [r4_283_TrROS]
4. SASLPPGQVRSLPVDVTIETPEGQPRFTEPATLEPPPRLVVDVALPLPPGEVTITIRLPGPGVTLTIERSAG [r14_280_JUSTAS]

Solution:
1: 2.08; 2: 5.17; 3: 0.247; 4: 1.42

Give folding stability dG unfold for each listed item.
1. SAGGSAGGPPPYYMVEIEIERRNPKNGKKQKFPVTVIMPPKEAEKIKDELEEWGYEIKVDVHPISAGGSAGG [r6_97_TrROS]
2. SAGGSAGGSAGGPRTLTLTVTLTRTYYDEETGEEVETETETLTLTLRLEPPPPLSPEQLSAGGSAGGSAGGS [r10_50_TrROS_Hall]
3. SSYTVLEEKVESDPNKDSLTYLTLKTPDGRELTVTEPVKKVDDSWITNSTLTDPVGGRTTTSTTTVKLSGSA [r9_269_JUSTAS]
4. SAGGIDLSKLPKNSIVVITKVKVYPTKVGEPDGEGEGYVEVELRVFRNIPPTGKILSSPLPVKFKIASAGGS [r8_486_TrMRF]
5. SAGGSAGGSAGGMKITLTVPSEEEIEALTPPDAKITEIKKIGKDPVKGLPYYEVVLDPSSAGGSAGGSAGGS [r10_256_JUSTAS]
6. SAGGSAGGSAGSPDRPRRVEPVPVVTYKDPDLGKEFTSPEEIEKTKEELEKKGLSVEVSASAGGSAGGSAGG [r17_289_JUSTAS]

Solution:
[0.74, 2.99, -0.487, 1.17, 0.0912, 0.289]
